TGT: UniProtKB P20292
Sequence (P20292 whole entry): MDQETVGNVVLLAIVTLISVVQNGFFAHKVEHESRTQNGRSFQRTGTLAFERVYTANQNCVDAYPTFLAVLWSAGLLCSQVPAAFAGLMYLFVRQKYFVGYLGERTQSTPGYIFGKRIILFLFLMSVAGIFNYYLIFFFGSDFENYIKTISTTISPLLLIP
PROTOCOL_DETAILS: Antagonist activity at FLAP in human PMNC assessed as inhibition of A23187-induced LTB4 biosynthesis pre-incubated for 2 mins followed by addition of A23187 measured after 5 mins by radioimmunoassay
ASSAY_ENDPOINT: pIC50
Give bare numbers, as −log10 of the molar value.

May I ask what pIC50 has been recorded for CC(C)c1ccc2c(c1)c(SC(C)(C)C)c(CC(C)(C)C(=O)O)n2Cc1ccc(Cl)cc1 ?
8.60

---

TGT: UniProtKB O14684
PROTOCOL_DETAILS: Inhibition of human mPGES-1 expressed in CHO-K1 cells using PGH2 as substrate assessed as PGE2 formation preincubated for 20 mins followed by addition of substrate measured after 60 secs by HTRF assay
Assay type: cell-based
ASSAY_ENDPOINT: IC50
The number alone won't do; follow it with the unit.

May I ask what IC50 has been recorded for Cn1c(Nc2cc(CNC(=O)C3(C(F)(F)F)CC3)ccc2Cl)nc2cc(C(=O)NCC3CC3)c(OCC(F)F)cc21 ?
100 pM

---

TGT: Prostaglandin E synthase (Homo sapiens)
Sequence (O14684 whole entry): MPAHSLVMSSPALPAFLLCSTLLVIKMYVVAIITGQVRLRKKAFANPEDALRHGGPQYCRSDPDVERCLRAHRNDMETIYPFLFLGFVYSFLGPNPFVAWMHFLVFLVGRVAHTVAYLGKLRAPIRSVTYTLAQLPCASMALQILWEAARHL
PROTOCOL_DETAILS: Inhibition of mPGES-1 in human A549 cells assessed as PGE2[…] formation preincubated for 60 mins prior to IL-beta stimulation measured after 24 hrs by EIA
Assay type: cell-based
ASSAY_ENDPOINT: IC50 (nM)
Answers are plain numbers, in nM.

May I ask what IC50 has been recorded for Cn1c(Nc2cc(CNC(=O)C3(C(F)(F)F)CC3)ccc2Cl)nc2cc(C(=O)NCC3CC3)c(OCC(F)F)cc21 ?
1.2
